# protocol.details: APR_HepG2_MitoMass_24hr: Apredica 24-hour HepG2 Assay for Mitochondrial Mass (AID 2282912)
# study.conditions: high-content imaging, actives raise or lower the signal
Calls of active or inactive are those of the source. The calls were made as follows: active = hit-call score of the fitted dose curve at least 0.9, where 1 is the maximum; inactive = score below 0.9.
Possible outcomes: t = active, f = inactive

chemical.string	label.value
O=C(NC(=O)c1cc(F)c(F)cc1Cl)Nc1cc(F)ccc1N1CCC(C(=O)O)CC1	f
C=CC(N)=O	f
Oc1ccc(C(c2ccc(O)cc2)(C(F)(F)F)C(F)(F)F)cc1	f
O=NN(c1ccccc1)c1ccccc1	f
O=C(NC(=O)c1c(F)cccc1F)Nc1cc(Cl)c(OC(F)(F)C(F)F)c(Cl)c1	f
O=C(N[C@H]1CN2CCC1CC2)c1cc2ccoc2cn1	f
ClC1=C(Cl)[C@]2(Cl)[C@@H]3[C@@H](Cl)[C@H]4O[C@H]4[C@@H]3C1(Cl)C2(Cl)Cl	f
O=C(O)C(F)(F)C(F)(F)C(F)(F)C(F)(F)C(F)(F)C(F)(F)C(F)(F)C(F)(F)F	t
Nc1ccc(-c2ccc(N)cc2)cc1	f
CCC(C)(CC)c1cc(NC(=O)c2c(OC)cccc2OC)on1	f
CC#Cc1cc(C)nc(Nc2ccccc2)n1	f
CCCCCCCCCc1ccc(O)cc1	f

Value source: PubChem BioAssay (EPA / NIEHS)
